Origin of values: ChEMBL document CHEMBL4483862

Tested on: Plasmodium berghei
Test: Luciferase/luciferin-expressing antifolate-resistant parasites were used to infect a culture of HepG2 cells that were pre-incubated with compounds. Infected hepatocytes emit light due to the luciferase reaction. Assay results are presented as the percent inhibition of light emission compared to control. […]
Format: functional
Settings: sporozoite, read-out: LUCIFERASE INFECTION ASSAY - IC90
Measured IC90 by item

Below, 4 compounds whose answers are already recorded.
Cc1cc(C)c(CNC(=O)N(C)Cc2cn(-c3ccccc3)nc2-c2ccccc2)c(=O)[nH]1: > 10 µM
CS(=O)(=O)Nc1ccc(-c2csc(NC(=O)c3ccc(CN4CCCCC4)cc3)n2)cc1: > 10 µM
O=C(COC(=O)Cc1ccc(Cl)c(Cl)c1)Nc1ccc(OCc2ccccc2)cc1: > 10 µM
CN1CCN(c2nc(-c3c(-c4ccc(F)cc4)[nH]c4ccccc34)cs2)CC1: > 10 µM

### Prompt Recorded IC90 for Cc1cccc(C(=O)Nc2sc3c(c2C(=O)N2CCCCC2)CCCCC3)c1 , please?
### Response 6.3 µM
